List of LE [kcal/mol/HA] values.
MEASURED_ON: purified recombinant IDO1 (Homo sapiens)
Construct: Full-length human IDO1 gene was cloned into the pET-28a vector; inferred from pET-28a vector and HisTrap purification; made in house; host or cells: E. coli Rosetta (DE3)
Sequence (P14902 whole entry): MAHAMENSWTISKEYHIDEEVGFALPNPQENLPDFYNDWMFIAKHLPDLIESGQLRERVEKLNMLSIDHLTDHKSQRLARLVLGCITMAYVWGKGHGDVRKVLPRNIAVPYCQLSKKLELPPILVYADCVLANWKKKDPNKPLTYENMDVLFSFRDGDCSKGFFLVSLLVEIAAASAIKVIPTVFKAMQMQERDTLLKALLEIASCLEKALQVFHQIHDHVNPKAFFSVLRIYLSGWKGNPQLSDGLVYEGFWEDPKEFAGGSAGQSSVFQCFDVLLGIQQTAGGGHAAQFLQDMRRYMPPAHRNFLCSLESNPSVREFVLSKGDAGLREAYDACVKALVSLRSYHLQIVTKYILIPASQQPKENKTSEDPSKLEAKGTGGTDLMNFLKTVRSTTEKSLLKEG
METHOD_NOTES: Enzymatic IDO1 inhibition assay (ascorbate/methylene blue reduction system, HPLC detection of kynurenine)
Type: biochemical
REPORTED_CONDITIONS: ligand efficiency, LE = -RT log(IC50)/number of heavy atoms, from enzymatic IC50
Numbers only here, please. The scale is kcal/mol/HA.

The following molecules have reported results that may help.
MOLECULE: Oc1ccc(Cc2ccccc2)cc1-c1cnn[nH]1
LE [kcal/mol/HA] [kcal/mol/HA]: 0.29
//
MOLECULE: O=C(c1ccoc1)c1cnn[nH]1
LE [kcal/mol/HA] [kcal/mol/HA]: 0.55
//
MOLECULE: CCc1cccc(-c2cnn[nH]2)c1
LE [kcal/mol/HA] [kcal/mol/HA]: 0.51

Consider the additional molecule presented here.
[Q] Look up LE [kcal/mol/HA]: `CCCc1ccc(O)c(-c2cnn[nH]2)c1`
[A] 0.56

The reported measurements were obtained from paper PMC9246256.
